target: T1, Soluble IGF-1R (R&D Systems, Cat. # 391-GR/CF); recombinant human IGF-1R (human, UniProt P08069 31-935); assay: phage ELISA, vs IR
T1 construct: extracellular domain; Eu3+-labelled in the TR-FRET assays; also called sIGF-1R; rhIGF-1R
Positions of bridges follow the written chain, without caps; N, C: chain ends. No end group written: not given here.
Please enter Yes where IGF-1R/IR Comparison is greater than or equal to 8 ratio, and No where it is lower.

| BINDER | CLASSIFICATION |
| --- | --- |
| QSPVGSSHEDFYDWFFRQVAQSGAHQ [N2CA-3-D6-IGFR] | No |
| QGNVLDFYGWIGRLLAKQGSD [20E2B-3-D12-IGFR] | No |
| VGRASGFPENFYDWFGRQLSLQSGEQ [H2CA-4-H6-IGFR] | Yes |
| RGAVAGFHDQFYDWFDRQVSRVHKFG [H2CA-4-E9-IGFR] | No |
| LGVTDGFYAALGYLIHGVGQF [20E2B-3-D11-IGFR] | No |
| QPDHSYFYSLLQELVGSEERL [20E2B-4-F9-IGFR] | No |
| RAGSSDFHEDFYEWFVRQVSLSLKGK [H2CA-2-B9-IGFR] | No |
| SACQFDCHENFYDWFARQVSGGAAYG (not fully specified (bridges); cysteine pairing not given here) [H2CA-4-H8-IGFR] | Yes |
| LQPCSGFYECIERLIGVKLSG (disulfide 4-10 (inferred)) [20E2Bβ-4-G7-IR] | Yes |
| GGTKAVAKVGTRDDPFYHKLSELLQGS [H6Hα-4-G8-IR] | No |
